These measurements were taken from ChEMBL document CHEMBL6103589.

- Test system: Urease subunit alpha/Urease subunit beta (Helicobacter pylori (strain ATCC 700392 / 26695) (Campylobacterpylori))
- Sequence (P69996 whole entry): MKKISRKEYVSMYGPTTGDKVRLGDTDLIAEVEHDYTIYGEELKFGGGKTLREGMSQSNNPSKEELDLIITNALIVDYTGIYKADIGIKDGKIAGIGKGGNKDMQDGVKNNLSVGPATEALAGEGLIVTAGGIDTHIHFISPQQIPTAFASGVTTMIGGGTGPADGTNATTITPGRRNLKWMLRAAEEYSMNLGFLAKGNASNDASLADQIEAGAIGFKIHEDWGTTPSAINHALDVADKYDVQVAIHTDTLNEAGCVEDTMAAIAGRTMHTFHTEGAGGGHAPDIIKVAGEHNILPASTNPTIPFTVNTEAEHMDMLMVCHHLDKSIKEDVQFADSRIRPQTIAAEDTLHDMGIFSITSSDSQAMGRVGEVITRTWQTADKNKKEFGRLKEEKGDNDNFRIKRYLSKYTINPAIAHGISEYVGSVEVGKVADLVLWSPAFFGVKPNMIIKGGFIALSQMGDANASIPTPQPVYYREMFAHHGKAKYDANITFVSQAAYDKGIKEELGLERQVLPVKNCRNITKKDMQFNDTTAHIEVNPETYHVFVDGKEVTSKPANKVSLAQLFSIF
- Sequence (P14916 whole entry, further chain): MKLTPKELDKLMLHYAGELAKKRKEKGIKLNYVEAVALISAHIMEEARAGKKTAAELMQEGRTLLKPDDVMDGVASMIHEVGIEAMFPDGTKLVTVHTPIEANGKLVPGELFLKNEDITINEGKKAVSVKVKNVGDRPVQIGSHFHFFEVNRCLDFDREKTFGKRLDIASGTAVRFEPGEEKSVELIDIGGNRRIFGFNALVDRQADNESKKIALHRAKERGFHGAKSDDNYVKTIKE
- Test protocol: Inhibition of Helicobacter pylori ATCC 43504 urease preincubated for 75 mins followed by urea addition and measured after 30 mins by ELISA
pIC50: −log10 of the molar value.
Quick list: pIC50 per entry.

| Mol | pIC50 |
| --- | --- |
| O=c1c2ccccc2[se]n1-c1cccc(OC(F)(F)F)c1 | 5.14 |
| O=c1c2ccccc2[se]n1-c1ccc(F)c(F)c1 | 5.45 |
| O=C(c1ccc(F)cc1F)n1[se]c2ccccc2c1=O | 5.70 |
| N#Cc1cccc(-n2[se]c3ccccc3c2=O)c1 | 5.88 |
| O=C(c1cccc(Cl)c1)n1[se]c2ccccc2c1=O | 5.88 |
| O=c1c2ccccc2[se]n1-c1ccc(F)cc1 | 5.62 |
| Cc1cccc(C(=O)n2[se]c3ccccc3c2=O)c1 | 5.27 |
| O=c1c2ccccc2[se]n1-c1ccc(C(F)(F)F)cc1F | 5.28 |
| O=C(Oc1n[se]c2ccccc12)c1c(F)cccc1F | 5.95 |
| O=C(c1ccc(F)c(F)c1F)n1[se]c2ccccc2c1=O | 5.46 |
| O=C(c1ccc(Br)cc1)n1[se]c2ccccc2c1=O | 6.03 |
| O=C(c1cccc(C(F)(F)F)c1)n1[se]c2ccccc2c1=O | 5.84 |
| O=C(c1ccc(F)cc1)n1[se]c2ccccc2c1=O | 6.05 |
| O=C(c1ccccc1Cl)n1[se]c2ccccc2c1=O | 5.84 |
| O=C(c1ccccc1F)n1[se]c2ccccc2c1=O | 6.06 |
| O=c1c2ccccc2[se]n1-c1cccc(Cl)c1 | 5.56 |
| O=C(Oc1n[se]c2ccccc12)c1ccccc1F | 6.51 |
| COc1ccc(-n2[se]c3ccccc3c2=O)cc1 | 5.12 |
| O=C(Oc1n[se]c2ccccc12)c1ccc(F)c(F)c1F | 5.96 |
| O=C(c1ccccc1C(F)(F)F)n1[se]c2ccccc2c1=O | 5.40 |
| O=C(Oc1n[se]c2ccccc12)c1cccc(F)c1 | 6.85 |
| O=c1c2ccccc2[se]n1-c1ccccc1Cl | 5.74 |
| COc1cccc(C(=O)n2[se]c3ccccc3c2=O)c1 | 5.70 |
| Cc1ccccc1C(=O)n1[se]c2ccccc2c1=O | 5.50 |
| COC(=O)c1cccc(-n2[se]c3ccccc3c2=O)c1 | 5.33 |
| Cc1cccc(-n2[se]c3ccccc3c2=O)c1 | 5.50 |
| O=C(c1cc(F)ccc1F)n1[se]c2ccccc2c1=O | 5.53 |
| O=C(c1ccc(F)c(F)c1)n1[se]c2ccccc2c1=O | 5.47 |
| O=C(Oc1n[se]c2ccccc12)c1cc(F)ccc1F | 6.07 |
| O=C(c1ccc([N+](=O)[O-])cc1)n1[se]c2ccccc2c1=O | 5.71 |
| CC(C)(C)c1ccc(-n2[se]c3ccccc3c2=O)cc1 | 4.82 |
| COC(=O)c1ccc(-n2[se]c3ccccc3c2=O)cc1 | 5.28 |
| COc1ccccc1C(=O)n1[se]c2ccccc2c1=O | 5.96 |
| O=c1c2ccccc2[se]n1-c1cc(F)ccc1Cl | 5.87 |
| O=c1c2ccccc2[se]n1-c1ccc(F)cc1Cl | 5.81 |
| O=c1c2ccccc2[se]n1-c1ccccc1 | 5.82 |
| O=C(Oc1n[se]c2ccccc12)c1ccc(F)cc1F | 6.44 |
| O=C(c1cccc(F)c1F)n1[se]c2ccccc2c1=O | 5.72 |
| O=C(c1ccc(Cl)cc1)n1[se]c2ccccc2c1=O | 5.71 |
| O=C(c1ccc(C(F)(F)F)cc1)n1[se]c2ccccc2c1=O | 5.45 |
| COc1cccc(-n2[se]c3ccccc3c2=O)c1 | 5.18 |
| O=C(c1c(F)cccc1F)n1[se]c2ccccc2c1=O | 5.44 |
| O=C(c1cccc([N+](=O)[O-])c1)n1[se]c2ccccc2c1=O | 5.91 |
| O=c1c2ccccc2[se]n1-c1ccc(Cl)cc1 | 5.60 |
| O=C(c1ccccc1[N+](=O)[O-])n1[se]c2ccccc2c1=O | 5.58 |
| O=C(Oc1n[se]c2ccccc12)c1ccc(F)cc1 | 6.47 |
| O=C(c1cc(F)c(F)cc1F)n1[se]c2ccccc2c1=O | 5.48 |
| COc1ccc(C(=O)n2[se]c3ccccc3c2=O)cc1 | 5.76 |
| O=C(c1ccccc1Br)n1[se]c2ccccc2c1=O | 5.82 |
| O=C(c1cccc(F)c1)n1[se]c2ccccc2c1=O | 6.36 |
| O=C(c1cccc(Br)c1)n1[se]c2ccccc2c1=O | 6.09 |
